Overview of reported Activity across a group of compounds:
System: 3T3-L1
Assay: Cytotoxicity against mouse 3T3L1 cells at 50 uM after 48 hrs by sulforhodamine B assay
Assay type: cell-based
Conditions: 3t3-l1, 48 h
Measured Parameter: Activity

INSERT INTO assay_data (compound, measured_parameter, result_value) VALUES
  ('O=c1c2cc(O)c(O)cc2oc2cc(O)c([C@@H]3O[C@H](CO)[C@@H](O)[C@H](O)[C@H]3O)c(O)c12 [MANGIFERIN]', 'Activity', '0 to 25%'),
  ('CCCOc1ccc(N2CCCCC2)c2c(=O)c3ccccc3sc12', 'Activity', '51 to 75%'),
  ('COc1c(O)ccc2c(=O)c3ccccc3oc12', 'Activity', '0 to 25%'),
  ('O=c1c2ccccc2oc2cccc(O)c12', 'Activity', '0 to 25%'),
  ('CCCOc1ccc(NCCN(CC)CC)c2c(=O)c3ccccc3sc12', 'Activity', '51 to 100%'),
  ('COc1cc2oc3ccccc3c(=O)c2cc1OC', 'Activity', '0 to 25%'),
  ('COc1ccc(Oc2ccccc2C(=O)O)cc1OC', 'Activity', '0 to 25%'),
  ('CC(C)[C@H](CO)NC(=O)COc1ccc2c(=O)c3ccccc3oc2c1', 'Activity', '0 to 25%'),
  ('COc1cccc2c(=O)c3cc4c(c(O)c3oc12)OC(C)(C)CC4', 'Activity', '51 to 75%'),
  ('COc1cc2c(c3oc4ccccc4c(=O)c13)OC(C)(C)C=C2', 'Activity', '51 to 75%'),
  ('COc1c2c(cc3c(=O)c4cc(Cl)ccc4oc13)OC(C)(C)CC2', 'Activity', '0 to 25%');
